The measurements presented in this section are drawn from paper PMC10893631.

Test system: EKVX
protocolText: NCI SRB growth inhibition (single dose 10 µM / five-dose)
Format: cell-based, human
testSettings: Homo sapiens; EKVX, Non-small cell lung cancer; five-dose
parameterMeasured: GI50 (nM)
Please give a number only; it is taken to be in nM.

*Q* Consider the compound COc1ccc(-c2nc3cc(C(=O)NN=Cc4cccc(OC)c4O)ccc3[nH]2)cc1 [8k] and give its measured GI50.
*A* 2300

*Q* Would you mind doing COc1ccc(-c2nc3cc(C(=O)NN=Cc4ccccc4O)ccc3[nH]2)cc1 [8h] as well?
*A* 3240

*Q* Would you mind doing COc1ccc(-c2nc3cc(C(=O)NN=Cc4cccc(OC)c4)ccc3[nH]2)cc1 [8j] as well?
*A* 2760

* * *

Tested on: HCT-116
protocolText: NCI SRB growth inhibition (single dose 10 µM / five-dose)
Type: cell-based, human
testSettings: Homo sapiens, HCT-116; read-out: GI%
parameterMeasured: inhibition at 10 µM (%)
Please give a number only; it is taken to be in %.

*Q* Consider the molecule COc1ccc(C=NNC(=O)c2ccc3[nH]c(-c4ccc(Cl)cc4)nc3c2)cc1O and give its measured inhibition at 10 µM.
*A* 69.5

*Q* Would you mind doing COc1ccc(-c2nc3cc(C(=O)NN=Cc4cccc(O)c4)ccc3[nH]2)cc1 as well?
*A* 42.8

*Q* Would you mind doing O=C(NN=Cc1cccc(O)c1)c1ccc2[nH]c(-c3ccc(Cl)cc3)nc2c1 as well?
*A* 37.7

*Q* Would you mind doing COc1ccc(OC)c(C=NNC(=O)c2ccc3[nH]c(-c4ccccc4)nc3c2)c1 as well?
*A* 52.5

*Q* Would you mind doing COc1cccc(C=NNC(=O)c2ccc3[nH]c(-c4ccccc4)nc3c2)c1O as well?
*A* 97.4

*Q* Would you mind doing COc1ccc(C=NNC(=O)c2ccc3[nH]c(-c4ccccc4)nc3c2)cc1O as well?
*A* 15

*Q* Would you mind doing COc1ccc(-c2nc3cc(C(=O)NN=Cc4cc(OC)ccc4OC)ccc3[nH]2)cc1 as well?
*A* 22.3

*Q* Would you mind doing O=C(NN=Cc1ccccc1O)c1ccc2[nH]c(-c3ccc(Cl)cc3)nc2c1 as well?
*A* 98.4

*Q* Would you mind doing COc1cccc(C=NNC(=O)c2ccc3[nH]c(-c4ccccc4)nc3c2)c1 as well?
*A* 12.7

*Q* Would you mind doing COc1ccc(-c2nc3cc(C(=O)NN=Cc4cc(OC)c(OC)c(OC)c4)ccc3[nH]2)cc1 as well?
*A* 23.4

*Q* Would you mind doing COc1ccc(-c2nc3cc(C(=O)NN=Cc4ccc(OC)c(O)c4)ccc3[nH]2)cc1 as well?
*A* 43.8

*Q* Would you mind doing COc1ccc(OC)c(C=NNC(=O)c2ccc3[nH]c(-c4ccc(Cl)cc4)nc3c2)c1 as well?
*A* 43.1

*Q* Would you mind doing COc1cc(C=NNC(=O)c2ccc3[nH]c(-c4ccccc4)nc3c2)cc(OC)c1OC as well?
*A* 41.6

* * *

Tested on: SR
protocolText: NCI SRB growth inhibition (single dose 10 µM / five-dose)
Assay type: cell-based, human
testSettings: Homo sapiens; SR, Leukemia; five-dose
For each of the molecules below, state its log10(GI50).
Annotation: log10 of GI50, µM basis.

*Q* Consider the molecule COc1cccc(C=NNC(=O)c2ccc3[nH]c(-c4ccccc4)nc3c2)c1O and give its measured log10(GI50).
*A* 0.26

*Q* Would you mind doing COc1cccc(C=NNC(=O)c2ccc3[nH]c(-c4ccc(Cl)cc4)nc3c2)c1 as well?
*A* 0.62

*Q* Would you mind doing COc1ccc(-c2nc3cc(C(=O)NN=Cc4cccc(OC)c4)ccc3[nH]2)cc1 as well?
*A* 1.03

*Q* Would you mind doing COc1cccc(C=NNC(=O)c2ccc3[nH]c(-c4ccc(Cl)cc4)nc3c2)c1O as well?
*A* -0.30

*Q* Would you mind doing COc1ccc(-c2nc3cc(C(=O)NN=Cc4ccccc4O)ccc3[nH]2)cc1 as well?
*A* 0.07

* * *

targetOrSystem: FGFR-1 (Homo sapiens)
Sequence (P11362 22-822): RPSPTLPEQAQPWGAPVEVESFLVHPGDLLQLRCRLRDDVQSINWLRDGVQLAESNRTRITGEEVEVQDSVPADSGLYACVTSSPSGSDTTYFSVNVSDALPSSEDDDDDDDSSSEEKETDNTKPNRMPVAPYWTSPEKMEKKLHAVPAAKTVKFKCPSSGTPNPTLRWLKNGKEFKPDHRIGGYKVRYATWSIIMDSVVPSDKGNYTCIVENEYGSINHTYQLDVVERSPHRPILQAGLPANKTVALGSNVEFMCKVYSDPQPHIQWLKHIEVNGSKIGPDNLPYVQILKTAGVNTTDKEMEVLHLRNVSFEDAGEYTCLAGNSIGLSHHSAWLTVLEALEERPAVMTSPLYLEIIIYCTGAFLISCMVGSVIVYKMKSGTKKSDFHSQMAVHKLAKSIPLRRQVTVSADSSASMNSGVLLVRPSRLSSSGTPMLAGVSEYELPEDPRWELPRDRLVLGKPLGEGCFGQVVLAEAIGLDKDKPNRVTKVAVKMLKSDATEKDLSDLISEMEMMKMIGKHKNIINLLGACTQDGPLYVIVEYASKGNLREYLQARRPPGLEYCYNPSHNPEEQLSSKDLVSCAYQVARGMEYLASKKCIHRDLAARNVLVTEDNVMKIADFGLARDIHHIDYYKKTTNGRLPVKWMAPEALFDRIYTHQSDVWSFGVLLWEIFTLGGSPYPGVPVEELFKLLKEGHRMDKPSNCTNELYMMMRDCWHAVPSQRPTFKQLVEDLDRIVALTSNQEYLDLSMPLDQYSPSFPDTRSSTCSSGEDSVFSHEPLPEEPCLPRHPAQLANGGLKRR
parameterMeasured: pIC50
On this scale, pIC50 is minus log10 of a concentration expressed in M (mol/L).

*Q* Consider the compound COc1cc(C=NNC(=O)c2ccc3[nH]c(-c4ccc(Cl)cc4)nc3c2)cc(OC)c1OC and give its measured pIC50.
*A* 5.43

* * *

Test system: U251
protocolText: NCI SRB growth inhibition (single dose 10 µM / five-dose)
Type: cell-based, human
testSettings: Homo sapiens, U-251; U251 (CNS cancer), 10 µM; read-out: GI%
parameterMeasured: inhibition at 10 µM (%)
Please give a number only; it is taken to be in %.

*Q* Consider the compound COc1ccc(OC)c(C=NNC(=O)c2ccc3[nH]c(-c4ccc(Cl)cc4)nc3c2)c1 and give its measured inhibition at 10 µM.
*A* 25.7

*Q* Would you mind doing O=C(NN=Cc1cccc(O)c1)c1ccc2[nH]c(-c3ccc(Cl)cc3)nc2c1 as well?
*A* 75.5

*Q* Would you mind doing COc1ccc(OC)c(C=NNC(=O)c2ccc3[nH]c(-c4ccccc4)nc3c2)c1 as well?
*A* 20.7

*Q* Would you mind doing COc1ccc(-c2nc3cc(C(=O)NN=Cc4cc(OC)ccc4OC)ccc3[nH]2)cc1 as well?
*A* 9.71

* * *

Test system: TK-10
protocolText: NCI SRB growth inhibition (single dose 10 µM / five-dose)
Type: cell-based, human
testSettings: Homo sapiens; TK-10, Renal cancer; five-dose
parameterMeasured: GI50

*Q* Consider the compound COc1cc(C=NNC(=O)c2ccc3[nH]c(-c4ccc(Cl)cc4)nc3c2)cc(OC)c1OC [8u] and give its measured GI50.
*A* 28.8 µM

*Q* Would you mind doing COc1ccc(-c2nc3cc(C(=O)NN=Cc4cccc(OC)c4)ccc3[nH]2)cc1 [8j] as well?
*A* 12.6 µM

*Q* Would you mind doing COc1cccc(C=NNC(=O)c2ccc3[nH]c(-c4ccccc4)nc3c2)c1O [8d] as well?
*A* 4.78 µM

*Q* Would you mind doing COc1ccc(-c2nc3cc(C(=O)NN=Cc4cccc(OC)c4O)ccc3[nH]2)cc1 [8k] as well?
*A* > 100 µM

*Q* Would you mind doing COc1cccc(C=NNC(=O)c2ccc3[nH]c(-c4ccc(Cl)cc4)nc3c2)c1 [8q] as well?
*A* 23.9 µM

*Q* Would you mind doing O=C(NN=Cc1ccccc1O)c1ccc2[nH]c(-c3ccc(Cl)cc3)nc2c1 [8o] as well?
*A* 5.08 µM

*Q* Would you mind doing COc1cccc(C=NNC(=O)c2ccc3[nH]c(-c4ccc(Cl)cc4)nc3c2)c1O [8r] as well?
*A* 6.46 µM

*Q* Would you mind doing COc1ccc(-c2nc3cc(C(=O)NN=Cc4ccccc4O)ccc3[nH]2)cc1 [8h] as well?
*A* 6.19 µM

* * *

Tested on: NCI-H226
protocolText: NCI SRB growth inhibition (single dose 10 µM / five-dose)
Assay type: cell-based, human
testSettings: Homo sapiens; NCI-H226 (Non-small cell lung cancer), 10 µM; read-out: GI%
Label criterion not met if inhibition at 10 µM falls below 20%; label criterion met in every other case.

*Q* Hi, just wondering whether O=C(NN=Cc1cccc(O)c1)c1ccc2[nH]c(-c3ccccc3)nc2c1 [8b] shows inhibition at 10 µM of 20% or higher.
*A* criterion not met

*Q* Would you mind doing COc1ccc(-c2nc3cc(C(=O)NN=Cc4ccc(OC)c(O)c4)ccc3[nH]2)cc1 [8l] as well?
*A* criterion met

*Q* Would you mind doing COc1ccc(-c2nc3cc(C(=O)NN=Cc4cccc(O)c4)ccc3[nH]2)cc1 [8i] as well?
*A* criterion not met

*Q* Would you mind doing COc1cccc(C=NNC(=O)c2ccc3[nH]c(-c4ccccc4)nc3c2)c1 [8c] as well?
*A* criterion not met

*Q* Would you mind doing COc1ccc(C=NNC(=O)c2ccc3[nH]c(-c4ccccc4)nc3c2)cc1O [8e] as well?
*A* criterion not met

*Q* Would you mind doing COc1ccc(-c2nc3cc(C(=O)NN=Cc4cc(OC)c(OC)c(OC)c4)ccc3[nH]2)cc1 [8n] as well?
*A* criterion met

*Q* Would you mind doing O=C(NN=Cc1ccccc1O)c1ccc2[nH]c(-c3ccc(Cl)cc3)nc2c1 [8o] as well?
*A* criterion met

*Q* Would you mind doing COc1cc(C=NNC(=O)c2ccc3[nH]c(-c4ccc(Cl)cc4)nc3c2)cc(OC)c1OC [8u] as well?
*A* criterion met

*Q* Would you mind doing COc1cccc(C=NNC(=O)c2ccc3[nH]c(-c4ccc(Cl)cc4)nc3c2)c1O [8r] as well?
*A* criterion met

*Q* Would you mind doing O=C(NN=Cc1cccc(O)c1)c1ccc2[nH]c(-c3ccc(Cl)cc3)nc2c1 [8p] as well?
*A* criterion met

*Q* Would you mind doing COc1cccc(C=NNC(=O)c2ccc3[nH]c(-c4ccc(Cl)cc4)nc3c2)c1 [8q] as well?
*A* criterion met
